method description: Pharmacokinetic experiment in rats
Type: in vivo, Sprague-Dawley rats
test parameters: male, Sprague-Dawley, plasma; rat, PO 10 mg/kg vs IV 0.5 mg/kg
reported property: bioavailability (%)

In [3]: df
Out[3]:
                                   compound  reported_property  u  result
0  [2H]C([2H])([2H])Oc1cc(N2CCOCC2)c(NC(=O)C=C)cc1Nc1nccc(-n2cc(CN(C)C)c(-c3ccccc3)n2)n1 [Compound T-3]    bioavailability  %    18.9
1  C=CC(=O)Nc1cc(Nc2nccc(-n3cc(CN(C)C)c(-c4ccccc4)n3)n2)c(OC)cc1N1CCOCC1 [Compound T-0, reference compound]    bioavailability  %    16.7

----------
method description: Pharmacokinetic experiment in rats
Format: in vivo, Sprague-Dawley rats
test parameters: male, Sprague-Dawley, plasma; rat, PO 10 mg/kg single dose
reported property: half-life (h)

                                   compound  reported_property  u  result
0  [2H]C([2H])([2H])Oc1cc(N2CCOCC2)c(NC(=O)C=C)cc1Nc1nccc(-n2cc(CN(C)C)c(-c3ccccc3)n2)n1          half-life  h    7.48
1  C=CC(=O)Nc1cc(Nc2nccc(-n3cc(CN(C)C)c(-c4ccccc4)n3)n2)c(OC)cc1N1CCOCC1 [Compound T-0, reference compound]          half-life  h    7.55

----------
method description: Pharmacokinetic experiment in rats
Assay type: in vivo, Sprague-Dawley rats
test parameters: male, Sprague-Dawley, plasma; rat, PO 10 mg/kg single dose; read-out: AUCINF—pred
reported property: AUC(0-inf) (ng·h/mL)

>>> print(df.to_string())
                                   compound  reported_property        u  result
0  [2H]C([2H])([2H])Oc1cc(N2CCOCC2)c(NC(=O)C=C)cc1Nc1nccc(-n2cc(CN(C)C)c(-c3ccccc3)n2)n1         AUC(0-inf)  ng·h/mL    1920
1  C=CC(=O)Nc1cc(Nc2nccc(-n3cc(CN(C)C)c(-c4ccccc4)n3)n2)c(OC)cc1N1CCOCC1 [Compound T-0, reference compound]         AUC(0-inf)  ng·h/mL    1800

----------
method description: Pharmacokinetic experiment in rats
Assay type: in vivo, Sprague-Dawley rats
test parameters: male, Sprague-Dawley, plasma; rat, IV 0.5 mg/kg single dose
reported property: Cmax (ng/mL)

In [3]: df
Out[3]:
                                   compound      u  result
0  [2H]C([2H])([2H])Oc1cc(N2CCOCC2)c(NC(=O)C=C)cc1Nc1nccc(-n2cc(CN(C)C)c(-c3ccccc3)n2)n1  ng/mL     299
1  C=CC(=O)Nc1cc(Nc2nccc(-n3cc(CN(C)C)c(-c4ccccc4)n3)n2)c(OC)cc1N1CCOCC1 [Compound T-0, reference compound]  ng/mL     323

----------
Test system: Skin cancer cell line A431 (WT)
method description: MTS cell viability assay, A431
Type: cell-based
test parameters: Homo sapiens, A-431, 72 hours
Method: Cell line: Skin cancer cell line A431 (purchased from the American Type Culture Collection (ATCC)); lung cancer cells NCI-H1975 (purchased from the American Type Culture Collection (ATCC)) and HCC827 (purchased from the American Type Culture Collection (ATCC)). […] Specific procedure: cells were adhered, the medium was discarded, and a mixture containing 20 μL MTS and 100 μL medium was added to each well. […] A dose-effect curve was prepared using GraphPad Prism software and IC50 was calculated.
pIC50: −log10 of the molar value.
reported property: pIC50

smiles structure	pIC50
[2H]C([2H])([2H])N(Cc1cn(-c2ccnc(Nc3cc(NC(=O)C=C)c(N4CCOCC4)cc3OC)n2)nc1-c1ccccc1)C([2H])([2H])[2H]	6.35 to 6.70

Short answer for [2H]c1c([2H])c([2H])c(-c2nn(-c3ccnc(Nc4cc(NC(=O)C=C)c(N5CCOCC5)cc4OC)n3)cc2CN(C([2H])([2H])[2H])C([2H])([2H])[2H])c([2H])c1[2H] : pIC50 was 6.35 to 6.70

Sure, the documented pIC50 for [2H]c1c([2H])c([2H])c(-c2nn(-c3ccnc(Nc4cc(NC(=O)C=C)c(N5CCOCC5)cc4OC)n3)cc2CN(C)C)c([2H])c1[2H] is 6.35 to 6.70

Source listed as patent US11267810B2.
